# Assay Details: Recovery of GT and bmGT from human whole blood (influence of blood cells)
# Assay type: in vitro ADME
# Condition Summary: whole blood; human blood, 5 μg added to 1 ml, blood centrifuged before extraction to eliminate cellular fraction
Readout Kind: recovery at 30 min, 5 µg/mL (%)
Note: unit % is implicit; provide only the numeric part.

Recorded recovery at 30 min, 5 µg/mL for `CN1C(=O)[C@]23CC4=CC=C[C@H](O)[C@H]4N2C(=O)[C@@]1(CO)SS3` , please?
8.44

* * *

# Assay Details: Recovery of GT and bmGT from human whole blood (influence of blood cells)
# Type: in vitro ADME
# Condition Summary: whole blood; human blood, 20 μg added to 1 ml, blood centrifuged before extraction to eliminate cellular fraction
Readout Kind: recovery at 30 min, 20 µg/mL (%)
Numbers only here, please. The scale is %.

Would you mind telling me what recovery at 30 min, 20 µg/mL value was observed for CN1C(=O)[C@]23CC4=CC=C[C@H](O)[C@H]4N2C(=O)[C@@]1(CO)SS3 [GT, Gliotoxin] ?
6.56
